- target-or-system: 3',5'-cyclic-AMP phosphodiesterase 4D (Homo sapiens); also: assay procedure not described here
- Sequence (Q08499 whole entry): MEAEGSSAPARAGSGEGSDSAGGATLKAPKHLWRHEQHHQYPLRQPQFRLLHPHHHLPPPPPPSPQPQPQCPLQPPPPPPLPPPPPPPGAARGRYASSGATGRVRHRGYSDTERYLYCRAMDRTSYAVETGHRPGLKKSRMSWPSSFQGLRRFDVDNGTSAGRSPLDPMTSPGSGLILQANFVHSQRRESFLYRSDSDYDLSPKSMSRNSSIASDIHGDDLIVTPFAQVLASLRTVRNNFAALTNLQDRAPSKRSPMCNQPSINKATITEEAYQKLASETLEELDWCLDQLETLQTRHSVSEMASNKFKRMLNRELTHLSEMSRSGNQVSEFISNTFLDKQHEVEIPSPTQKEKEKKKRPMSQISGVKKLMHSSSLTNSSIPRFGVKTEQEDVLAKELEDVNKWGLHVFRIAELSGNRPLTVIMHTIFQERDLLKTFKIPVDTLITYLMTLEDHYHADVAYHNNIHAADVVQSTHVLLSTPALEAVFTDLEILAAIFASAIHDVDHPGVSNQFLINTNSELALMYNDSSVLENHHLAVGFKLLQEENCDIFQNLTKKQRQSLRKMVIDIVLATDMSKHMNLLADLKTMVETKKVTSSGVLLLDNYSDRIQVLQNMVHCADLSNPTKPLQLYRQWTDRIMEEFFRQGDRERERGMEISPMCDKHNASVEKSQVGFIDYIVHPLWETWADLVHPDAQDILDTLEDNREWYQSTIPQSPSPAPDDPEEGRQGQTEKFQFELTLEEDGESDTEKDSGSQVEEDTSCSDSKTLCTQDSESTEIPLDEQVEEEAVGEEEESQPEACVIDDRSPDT
- Type: functional
reported-endpoint: AC50

1. C/N=C(\NC)NCc1ccccc1: > 30 µM
2. CC(S)C(=O)NCC(=O)O (stereo unspecified): > 30 µM
3. NC1CCN(c2nc3c(cc2F)c(=O)c(C(=O)O)cn3-c2ccc(F)cc2F)C1 (stereo unspecified): > 30 µM
4. Cc1cnc(C(=O)NCCc2ccc(S(=O)(=O)NC(=O)NC3CCCCC3)cc2)cn1 [GLIPIZIDE]: > 30 µM
5. CC(C(=O)O)c1ccc2c(c1)[nH]c1ccc(Cl)cc12 (stereo unspecified): 5.2 µM
6. CC(=O)[C@]1(O)Cc2c(O)c3c(c(O)c2[C@@H](O[C@H]2C[C@H](N)[C@H](O)[C@H](C)O2)C1)C(=O)c1ccccc1C3=O: > 30 µM
